Recorded composite z-score, one value per entry.
target: Dickkopf-related protein 1 (Homo sapiens); assay: small molecules binding DKK1 protein – biochemical, small-molecule microarray, 635 nm fluorescence scan, primary screen (AID 1106); settings: higher = more signal;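 note: score merges emission near 667 nm with signal to noise over three replicate slides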
The response must contain the number and no unit.

structure smiles: COc1ccc([Si](C)(C)[C@@H]2[C@@H](CC(=O)N(CCO)Cc3ccccc3)O[C@]3(C(=O)N(Cc4cccc(N5CCCCC5=O)c4)c4ccccc43)[C@H]2C)cc1
observed value: 0.419
--
structure smiles: COCCOC(=O)N1C(=O)[C@@]2(c3cc(C#CC4(O)CCCCCC4)ccc31)[C@H](C(=O)Nc1nc3ccccc3s1)[C@H]1C(=O)O[C@H](c3ccccc3)[C@H](c3ccccc3)N1[C@@H]2c1ccc(O)cc1
observed value: 0.875

Exercise: Item CCOC(=O)C[C@H]1[C@H](OC(=O)c2ccc(-c3ccccc3)cc2)[C@@H](NC(=O)CC(C)C)c2cc(OCCCO)ccc2N1C(=O)c1ccc2ccccc2n1 has what recorded composite z-score?
Solution: 0.273
